AUC of viability dose-response curve: recorded values
System: NOMO1
measurement-notes: AUC of viability dose-response curve (% viability x log10 dose units); higher = less sensitive
condition-description: HPLM + 10% dialyzed FBS; 48 h
Please reply with the number alone, leaving off any unit.

Below: 5 molecules and their reported AUC of viability dose-response curve.
C[S+](=O)([O-])CCNCc1ccc(-c2ccc3ncnc(Nc4ccc(OCc5cccc(F)c5)c(Cl)c4)c3c2)o1: 456
CN(C)c1cc(NC(=O)CNC(C)(C)C)c(O)c2c1C[C@H]1C[C@H]3[C@H](N(C)C)C(O)=C(C(N)=O)C(=O)[C@@]3(O)C(O)=C1C2=O: 466
O=c1[nH]c(=O)n(C2CCCO2)cc1F (stereo unspecified): 468
C[C@@H]1C[C@H]2[C@@H]3\C=C(C)/C4=C/C5=C(C[C@]4(C)[C@H]3[C@@H](O)C[C@]2(C)[C@@]1(O)C(=O)CO)C=N[N]5C6=CC=CC=C6: 425
OCCC#Cc1nc(-c2ccc(F)cc2)c(-c2ccncc2)n1CCCc1ccccc1: 463

Could you now consider this next molecule?
Input line: # get_value(readout='AUC of viability dose-response curve', item= OC[C@H]1O[C@@H](Oc2cc(O)cc(/C=C/c3ccc(O)cc3)c2)[C@H](O)[C@@H](O)[C@@H]1O )
Output line: 397
